B1: Formin-binding protein 4, residues 593 to 636; numbered along this chain, Q8N3X1 (parent)
chain: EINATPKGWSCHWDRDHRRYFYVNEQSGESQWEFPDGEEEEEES

- Variants of: B1
- Assay name: abundance fitness (aPCA) (normalised: wild type 0, dead -1); higher = more abundant; growth selection in yeast, the domain comes from the species named
- Test conditions: Homo sapiens
# binarize abundance fitness: threshold -0.3 inclusive, high side fulfilled, low side not fulfilled

Study these solved cases before continuing.
{"columns": ["Mutant designation", "Assigned label"],
 "data": [
  ["T5R", "not fulfilled"],
  ["I2E", "fulfilled"],
  ["S44H", "fulfilled"]
]}

Request: Given the entry W9G , answer whether its abundance fitness meets or surpasses -0.3.
Result: not fulfilled

Request: Repeat for the following variant: N3V
Result: fulfilled

Request: Next entry: Q26C
Result: fulfilled
